- experimental-system: hCA IX (Homo sapiens, UniProt Q16790)
- measurement-description: Stopped flow CO2 hydrase assay, hCA IX inhibition
- run-conditions: stopped flow technique; means ± SEM of 3 different assays; recombinant hCA IX; read-out: Ki CA IX
assay-readout: log10(Ki) (log10 of the value in µM)
In plain terms, each number is the log10 of measured Ki in µM.

So what's the measured log10(Ki) for this one? `CCOC(=O)/C(O)=C/C(=O)/C=C/c1cn(Cc2ccc(OC)cc2)c2ccccc12`
1.90

Look up log10(Ki) for this compound: `O=C(/C=C(\O)C(=O)O)/C=C/c1cccn1Cc1ccc(F)cc1`
0.30

Reported log10(Ki), compound `CCOC(=O)/C(O)=C/C(=O)/C=C/c1cccn1Cc1ccc(F)cc1` : ____
1.95

Quick one: log10(Ki) for `COc1ccc(Cn2cc(/C=C/C(=O)/C=C(\O)C(=O)O)c3ccccc32)cc1` ?
0.04

What log10(Ki) value was documented for this compound, `CCOC(=O)/C(O)=C/C(=O)/C=C/c1cn(Cc2ccc(F)cc2)cc1-c1ccccc1` ?
1.63

Looking for the measured log10(Ki) of `CCOC(=O)/C(O)=C/C(=O)c1cn(Cc2ccc(F)cc2)cc1-c1ccccc1` , can you help?
1.76

I'd like to know its log10(Ki). The compound in question is `CCOC(=O)/C(O)=C/C(=O)/C=C/c1cccn1Cc1ccccc1F`
1.37

# input compound: `O=C(O)/C(O)=C/C(=O)c1ccn(Cc2ccc(F)cc2)c1` ; wanted: its log10(Ki)
1.26

----------
- System: triple negative breast cancer MDA-MB231
- measurement-description: In vitro proliferation assay (sulforhodamine B), MDA-MB231
- Assay type: cell-based
- run-conditions: Homo sapiens, MDA-MB-231; 24 h treatment; ± SD
Hi there, I'd appreciate the recorded pEC50 for every entry that follows.
Please keep in mind that pEC50 is minus log10 of the molar concentration; only the number is needed.

// map `CCOC(=O)/C(O)=C/C(=O)/C=C/c1cn(Cc2ccc(OC)cc2)c2ccccc12` to recorded pEC50 (system: triple negative breast cancer MDA-MB231)
4.64

Could you share what pEC50 was measured for `Cc1ccc(Cn2cccc2/C=C/C(=O)/C=C(\O)C(=O)O)cc1` , tested on triple negative breast cancer MDA-MB231?
4.07

Request: pEC50, test system triple negative breast cancer MDA-MB231, entry `O=C(/C=C(\O)C(=O)O)/C=C/c1cn(Cc2ccc(F)cc2)cc1-c1ccccc1`
3.92

I'm curious: which pEC50 was measured for `COc1ccc(Cn2cc(/C=C/C(=O)/C=C(\O)C(=O)O)c3ccccc32)cc1` tested on triple negative breast cancer MDA-MB231?
4.68

----------
- experimental-system: UniProt P00915
- Sequence (P00915 whole entry): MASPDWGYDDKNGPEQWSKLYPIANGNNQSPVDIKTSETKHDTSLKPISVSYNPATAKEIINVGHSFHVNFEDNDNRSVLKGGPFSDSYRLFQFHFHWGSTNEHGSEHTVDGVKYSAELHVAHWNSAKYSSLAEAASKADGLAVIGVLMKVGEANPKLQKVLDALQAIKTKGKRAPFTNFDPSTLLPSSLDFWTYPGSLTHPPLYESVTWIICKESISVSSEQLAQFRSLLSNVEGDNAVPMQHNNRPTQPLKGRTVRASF
- measurement-description: Stopped flow CO2 hydrase assay, hCA I inhibition
- run-conditions: stopped flow technique; means ± SEM of 3 different assays; recombinant hCA I; read-out: Ki CA I
Kindly state pKi for each of the entries shown.
// field semantics: pKi = negative decimal log of concentration (mol/L)

Quick check: pKi of `O=C(/C=C(\O)C(=O)O)/C=C/c1cccn1Cc1ccc(F)cc1` ?
4.09

Find the recorded pKi belonging to `O=C(O)/C(O)=C/C(=O)c1ccn(Cc2ccc(F)cc2)c1` and report it.
4.29

So what does the record say about pKi for `COc1ccc(Cn2cc(/C=C/C(=O)/C=C(\O)C(=O)O)c3ccccc32)cc1` ?
4.04
